Provide the reported Kd of each item.
Target: MSI1 full-length (mouse, UniProt Q61474 1-362)
Sequence (Q61474 whole entry): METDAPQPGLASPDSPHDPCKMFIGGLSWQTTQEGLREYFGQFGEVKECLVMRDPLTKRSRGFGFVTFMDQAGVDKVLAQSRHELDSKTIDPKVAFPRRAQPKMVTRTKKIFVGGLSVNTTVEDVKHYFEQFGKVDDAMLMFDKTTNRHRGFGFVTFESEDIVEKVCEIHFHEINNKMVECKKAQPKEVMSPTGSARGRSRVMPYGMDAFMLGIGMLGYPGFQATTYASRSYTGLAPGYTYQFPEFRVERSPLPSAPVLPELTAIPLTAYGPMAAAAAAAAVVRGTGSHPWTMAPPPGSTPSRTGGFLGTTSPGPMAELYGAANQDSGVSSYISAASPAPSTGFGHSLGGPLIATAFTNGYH
Assay: fluorescence polarization; FP: 5 nM RNA, 20 mM Hepes (pH not given), 5 mM DTT, 137.5 mM NaCl, 0.01% Triton X-100, 10 ng/ul BSA, 2 U/ml SUPERase-In; 15 min at 4 C, read at 25 C; positional
State the answer as a number, implicitly in nM.

Fill blank: measured Kd of the binder UAGUUUAGUUUAGUU (ssRNA) [tri-UAG FP RNA] is ____. 5

Fill blank: measured Kd of the binder AAAAAAAAUUAGAAAAAA (ssRNA) [mono-UAG FP RNA] is ____. 126
